meta.source: PubChem BioAssay (Tox21)

# method.notes: qHTS assay to identify small molecule that activate the aryl hydrocarbon receptor (AhR) signaling pathway - cell viability counter screen (AID 743086);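 also: HepG2 liver cells carrying the AhR DRE luciferase reporter; nearly all actives have a fitted effect of over 45% in size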
# cond: HepG2-AhR-luc viability, CellTiter-Fluor, 24 h; series mostly up to 70.3 µM
Inconclusive results are not listed. The source made the active and inactive calls. Calls follow the shape of the dose curve; as a rule, active = well fitted cell-killing curve with a large enough effect in the repeat runs; inconclusive = weak or mixed curves, or effect the other way; inactive = flat fitted curve, though single readings scatter.
endpoint: outcome

Look over these answered cases.
>>> observed_result("COC(OC)OC")
"inactive"
>>> observed_result("Cc1cc(CCC(=O)OCCOCCOCCOC(=O)CCc2cc(C)c(O)c(C(C)(C)C)c2)cc(C(C)(C)C)c1O")
"inactive"
>>> observed_result("CC1CCC(C(C)CS)CC1S (stereo not drawn)")
"inactive"
>>> observed_result("COc1ccc(-n2nc(C(F)F)cc2-c2ccc(S(C)=O)cc2)cc1 (stereo not drawn)")
"inactive"
>>> observed_result("O=CNNC=O")
"inactive"
>>> observed_result("CC(C)COC(=O)COc1cc(Cl)c(Cl)cc1Cl")
"inactive"
>>> observed_result("O=C(Nc1ccc(C(=O)O)c(O)c1)c1ccccc1")
"inactive"

Consider the record given below.
Name the recorded outcome of the item "C1CCCCC1" in your answer.
inactive
